Reference source: PubChem BioAssay (NCI)

tested on: K-562 leukemia; assay: NCI tumour cell line growth inhibition, 48 h
quantityName: TGI

Below are worked cases with known answers.
compound	quantityName	testResult
CN(CCCNC(=O)c1nn(C)c2c1Cc1ccccc1-2)CCCNC(=O)c1nn(C)c2c1Cc1ccccc1-2	TGI	25.6 µM
CC(C)(C)N/N=C(\C(=O)Nc1nc(=S)[nH][nH]1)C1C(=O)Nc2ccccc2S1=O (centres undefined)	TGI	> 100 µM
CCN(CC)CC1CN=C(N)O1 (centres undefined)	TGI	> 100 µM
O=C(c1ccccc1)c1c(C(F)(F)F)n([O-])c2cc(C(F)(F)F)ccc2[n+]1=O	TGI	0.559 µM
O=C(O)c1c2c(cc3c1CC1(Cc4cc5c(cc4C1=O)CCC5)C3)CCC2 (centres undefined)	TGI	> 100 µM

Kindly give each listed record's TGI.
1. COC(=O)/C(C#N)=C(\N)C(Cl)(Cl)Cl
2. CCOC(=O)CCN1C(=O)C(=O)N(c2ccc(OC)cc2)C1=S
3. CCSc1nc(=S)n(-c2ccccc2)c(C)c1C(C)=O
4. Cc1nc2ccccn2c1NC(=O)NNC(=S)Nc1ccc(F)cc1

1. 4.51 µM
2. > 100 µM
3. > 100 µM
4. > 100 µM

Each compound below has a recorded value; state its TGI.
1. CCCCCCCCP(=O)(O)OP(=O)(O)OCC1OC(n2ccc(N)nc2=O)C(O)C1O (centres undefined)
2. Cc1cc2n[n+]3[n-]cc(-c4ccccc4)n3c2cc1[N+](=O)[O-]
3. Nc1ccc(COC(O)CN2CCCCC2)cc1[N+](=O)[O-] (centres undefined)

1. > 100 µM
2. > 100 µM
3. > 100 µM

For every item in the list below, what is its measured TGI?
1. O=P(Nc1ccccc1)(Oc1ccccc1)N(CCCl)CCCl (centres undefined)
2. C=CCOC(=O)N1c2ccc(O)cc2[C@@]23O[C@@]24[C@@H]1C#C/C=C\C#C[C@]3(O)C(OC)(OC)C[C@@H]4C
3. Cc1cc(S(=O)(=O)Nc2nncn2-c2ccc(Cl)cc2)c(S)cc1Cl
4. COC(=O)C(Cc1ccc(N(C)C)cc1)(NC(=O)c1ccccc1)P(=O)(OC)OC (centres undefined)
5. C=CCC1(C(=O)OC(C)(C)C)C(OC)=C(C(=O)OC(C)(C)C)C2C1C(C(=O)OC(C)(C)C)=C(OC)C2(CC=C)C(=O)OC(C)(C)C (centres undefined)

1. > 100 µM
2. > 100 µM
3. > 10 µM
4. > 100 µM
5. > 100 µM

Batch request: TGI per item, same order as input.
1. C#C[C@@]1(O)CCCC2=CC3(CC[C@]21C)SCCS3
2. COc1cc(C(C)c2cc3c(cc2OCCNC(=O)COc2cc4c(cc2C(C)c2cc(OC)c(OC)c(OC)c2)OCO4)OCO3)cc(OC)c1OC (centres undefined)

1: > 100 µM; 2: > 100 µM
